Where these numbers come from: patent US20230365553A1

target: STING (Homo sapiens, UniProt Q86WV6, G230A/H232R/R293Q/R71H); test: STING reporter assay: luciferase reporter activity in THP1-Dual KO-IFNAR2 cells stimulated with 2′3′cGAMP; conditions: 15 μM 2′3′cGAMP, 24h, read-out: hSTING EC50
Sequence (Q86WV6 whole entry R71H/G230A/H232R/R293Q): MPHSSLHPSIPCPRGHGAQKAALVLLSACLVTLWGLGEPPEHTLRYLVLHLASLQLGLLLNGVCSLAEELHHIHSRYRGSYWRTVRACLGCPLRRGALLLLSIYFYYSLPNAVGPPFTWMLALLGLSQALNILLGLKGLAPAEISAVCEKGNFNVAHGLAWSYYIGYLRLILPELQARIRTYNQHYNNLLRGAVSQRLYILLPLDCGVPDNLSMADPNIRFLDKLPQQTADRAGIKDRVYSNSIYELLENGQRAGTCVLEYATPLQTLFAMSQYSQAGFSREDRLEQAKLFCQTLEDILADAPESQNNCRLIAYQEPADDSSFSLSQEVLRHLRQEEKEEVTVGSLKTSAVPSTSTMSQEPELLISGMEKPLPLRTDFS
Listed here: items and their measured EC50.

Record excerpt, results attached:
compound="CC(=O)N1CC(C(=O)Nc2c[nH]c3ccc(-c4cnn(-c5ccc(C(F)(F)F)cc5)c4)cc23)C1 [Compound 223]" reported_measurement="1 to 5 µM"
compound="N#Cc1cc(C(=O)Nc2c[nH]c3ccc(-c4cnn(-c5ccc(C(F)(F)F)cc5)c4)cc23)n[nH]1 [Compound 264]" reported_measurement="1 to 5 µM"
compound="CC(=O)Nc1c[nH]c2ccc(-c3cnn(C(C)c4ccc(C(F)(F)F)cc4)c3)cc12 (stereo not drawn) [Compound 178]" reported_measurement="0.2 to 1 µM"
compound="N#CC1(C(=O)Nc2c[nH]c3ccc(-c4cnn(-c5ccc(C(F)(F)F)cc5)c4)cc23)CCOCC1 [Compound 220]" reported_measurement="5 to 100 µM"
compound="O=C(Nc1c[nH]c2ccc(-c3cnn(-c4ccc(C(F)(F)F)cc4)c3)cc12)c1cnco1 [Compound 263]" reported_measurement="0.2 to 1 µM"
compound="CN1CCC(C(=O)Nc2c[nH]c3ccc(-c4cnn(-c5ccc(C(F)(F)F)cc5)c4)cc23)CC1=O (stereo not drawn) [Compound 231]" reported_measurement="1 to 5 µM"
compound="O=C(Nc1c[nH]c2ccc(-c3cnn(-c4ccc(C(F)(F)F)cc4)c3)cc12)C1CC(F)(F)C1 [Compound 236]" reported_measurement="0.2 to 1 µM"
compound="CC(=O)NC(C(=O)Nc1c[nH]c2ccc(-c3cnn(-c4ccc(C(F)(F)F)cc4)c3)cc12)C(C)C (stereo not drawn) [Compound 218]" reported_measurement="1 to 5 µM"
compound="CC(C)(O)CC(=O)Nc1c[nH]c2ccc(-c3cnn(-c4ccc(C(F)(F)F)cc4)c3)cc12 [Compound 173]" reported_measurement="0.2 to 1 µM"
compound="CCc1ccc(-n2cc(-c3ccc4[nH]cc(NC(=O)C5CCC5)c4c3)cn2)cc1 [Compound 124]" reported_measurement="0.04 to 0.2 µM"

Request: Item under review: CCC(=O)Nc1c[nH]c2ccc(-c3cnn(-c4cccc(Cl)c4)c3)cc12 [Compound 149] . Reported EC50?
Response: 0.2 to 1 µM

Request: For O=C(Nc1c[nH]c2cnc(-c3cnn(-c4ccc(C(F)(F)F)cc4)c3)cc12)C1CCC1 [Compound 255] then?
Response: 5 to 100 µM

Request: For O=C1CC(C(=O)Nc2c[nH]c3ccc(-c4cnn(-c5ccc(C(F)(F)F)cc5)c4)cc23)CCN1 (stereo not drawn) [Compound 219] then?
Response: 1 to 5 µM

Request: For O=C(Nc1c[nH]c2ccc(-c3cnn(-c4ccc(C(F)(F)F)cc4)c3)cc12)C1(F)CCOCC1 [Compound 233] then?
Response: 0.2 to 1 µM

Request: For CCC(=O)Nc1c[nH]c2ccc(-c3cnn(-c4ccc(C#N)cc4)c3)cc12 [Compound 101] then?
Response: 0.2 to 1 µM

###

Biological target: STING (Homo sapiens, UniProt Q86WV6, G230A/H232R/R293Q/R71H)
Experiment: STING reporter assay: luciferase reporter activity in THP1-Dual KO-IFNAR2 cells stimulated with 2′3′cGAMP
Conditions: 15 μM 2′3′cGAMP, 24h, read-out: hSTING EC50
Description: STING pathway activation by the compounds described herein was measured using THP 1-Dual™ cells (KO-IFNAR2). […] 2 mL of solution A and 2 ml Solution B was mixed and incubated for 20 min at room temperature (RT). […] Luciferase reporter activity was then measured. EC50 values were calculated by using standard methods known in the art. […] Luciferase reporter activity was then measured. EC50 values were calculated by using standard methods known in the art.
pEC50: −log10 of the molar value.
ENDPOINT_NAME: pEC50

molecule="CCc1ccc(-n2cc(-c3ccc4[nH]cc(NC(=O)C5CCCO5)c4c3)cn2)cc1 (centres unmarked)" reported_measurement="6.00 to 6.70"
molecule=CC(=O)Nc1c[nH]c2ccc(-c3cnn([C@@H](C)c4cccc(C(F)(F)F)c4)c3)cc12 reported_measurement="6.00 to 6.70"
molecule=CC1(C(=O)Nc2c[nH]c3ccc(-c4cnn(-c5ccc(C(F)(F)F)cc5)c4)cc23)COC1 reported_measurement="6.00 to 6.70"
molecule="O=C(Nc1c[nH]c2ccc(-c3cnn(-c4ccc(C(F)(F)F)cc4)c3)cc12)C1CCC(CO)CC1 (centres unmarked)" reported_measurement="5.30 to 6.00"
molecule=O=C(Nc1c[nH]c2ccc(-c3cnn(-c4ccc(C5CC(F)(F)C5)cc4)c3)cc12)C1CCC1 reported_measurement="6.00 to 6.70"
molecule=O=C(Nc1c[nH]c2ccc(-c3cnn(-c4ccc(C(F)(F)F)cc4)c3)cc12)c1cnoc1 reported_measurement="4.00 to 5.30"
molecule=COCC(=O)Nc1c[nH]c2ccc(-c3cnn(-c4ccc(C(F)(F)F)cc4)c3)cc12 reported_measurement="6.00 to 6.70"

Request: Item under review: O=C(Nc1c[nH]c2ccc(-c3cnn(-c4ccc(C(F)(F)F)cc4)c3)cc12)C1(O)COC1 . Reported pEC50?
Response: 5.30 to 6.00
